Assign MIC to each entry below.
- Test system: Mycobacterium tuberculosis
- testMethodNotes: Antituberculosis activity against Mycobacterium tuberculosis H37Rv in 7H12 medium incubated for 4 days by Microplate Alamar Blue assay
- Type: functional
- conditionParameters: 96 h

# molecule, MIC
measured = [
    ("CSN1C(=O)CC1N(OCc1ccccc1)C(=O)c1ccc([N+](=O)[O-])cc1 (racemic)", "> 100 µM"),
    ("C[C@@H](O)[C@H]1C(=O)N[C@@H]1N(OCc1ccccc1)C(=O)c1ccccc1", "> 100 µM"),
    ("CC(C)(C)[Si](C)(C)N1C(=O)CC1N(OCc1ccccc1)C(=O)c1ccccc1 (racemic)", "49.2 µM"),
]

// for each molecule in input: emit MIC
1. C[C@@H](O[Si](C)(C)C(C)(C)C)[C@H]1C(=O)N[C@@H]1N(O)C(=O)c1ccccc1
2. C[C@H]1COC2(CCN(c3nc(=O)c4cc(C(F)(F)F)cc([N+](=O)[O-])c4s3)CC2)O1 [BTZ-043]
3. C[C@@H](O[Si](C)(C)C(C)(C)C)[C@H]1C(=O)N[C@@H]1N(OCc1ccccc1)C(=O)c1ccccc1

["> 50 µM", "< 0.004 µM", "> 100 µM"]

Can you give me MIC for all of these, one by one?
1. CCOc1ccc(C(=O)N(OCc2ccccc2)C2CC(=O)N2)cc1 (racemic)
2. CSN1C(=O)CC1N(OCc1ccccc1)C(=O)c1ccccc1 (racemic)

["> 100 µM", "> 50 µM"]

Each recorded value in this set is attributed to ChEMBL document CHEMBL3785040.
